- experimental-system: Adenosine receptor A2a (Rattus norvegicus)
- Sequence (P30543 whole entry): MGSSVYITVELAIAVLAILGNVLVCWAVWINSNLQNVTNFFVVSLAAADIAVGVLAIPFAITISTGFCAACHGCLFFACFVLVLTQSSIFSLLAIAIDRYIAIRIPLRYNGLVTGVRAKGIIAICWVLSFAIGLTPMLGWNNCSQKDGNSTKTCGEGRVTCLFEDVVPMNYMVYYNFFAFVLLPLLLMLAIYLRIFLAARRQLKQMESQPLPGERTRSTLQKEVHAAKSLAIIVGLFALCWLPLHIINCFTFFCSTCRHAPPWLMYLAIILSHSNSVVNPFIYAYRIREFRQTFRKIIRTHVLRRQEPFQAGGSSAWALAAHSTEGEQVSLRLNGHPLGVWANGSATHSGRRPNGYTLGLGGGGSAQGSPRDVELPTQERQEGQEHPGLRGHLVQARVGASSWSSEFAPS
- assay-remarks: Binding affinity for Adenosine A2A receptor from rat striatal membranes using [3H]-[…]
pIC50: −log10 of the molar value.
Measured pIC50 by item
test-readout: pIC50

molecule=Nc1nc2ccc(Cl)cc2c2nc(-c3ccco3)nn12 experimental_system="Adenosine receptor A2a (Rattus norvegicus)" result=8.48
molecule=Nc1nc2ccc(Cl)cc2c2nc(-c3ccc(Br)o3)nn12 experimental_system="Adenosine receptor A2a (Rattus norvegicus)" result=6.27
molecule="CCOC(=O)C1=C(c2ccccc2)Nc2cc(C)c(C(=O)OCC)cc2C1/C=C/c1ccccc1 (stereo not drawn)" experimental_system="Adenosine receptor A2a (Rattus norvegicus)" result=8.32
